IC50 values, listed per item
Target: human EHMT2 913-1193 (Homo sapiens)
Sequence (Q96KQ7 913-1193): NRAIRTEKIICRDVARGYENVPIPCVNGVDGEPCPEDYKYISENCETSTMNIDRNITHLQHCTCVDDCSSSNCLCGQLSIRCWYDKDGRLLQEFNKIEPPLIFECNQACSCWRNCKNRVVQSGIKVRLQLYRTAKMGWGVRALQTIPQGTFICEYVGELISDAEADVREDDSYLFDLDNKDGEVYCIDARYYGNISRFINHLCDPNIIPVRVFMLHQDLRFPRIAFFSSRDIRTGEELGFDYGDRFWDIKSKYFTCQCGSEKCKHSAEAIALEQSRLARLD
Assay: EHMT2 enzyme assay on histone peptide substrate (3H-SAM SPA)
Conditions: EHMT2 IC50, recombinant human EHMT2 913-1193, histone peptide substrate
metric-name: IC50

>>> endpoint_result("CNc1cc(C)nc(Nc2cc3c(c(C4=CCNCCC4)c2C)OCCC3)n1")
"< 100 nM"
>>> endpoint_result("CNc1nc(Nc2cc3c(c(C4=CCNCCC4)c2F)OCC3)nc(C)c1F")
"< 100 nM"
>>> endpoint_result("[2H]Cc1cc(NCC([2H])([2H])[2H])nc(Nc2cc3c(c(C4=CCN(C)CCC4)c2F)OCC3)n1")
"< 100 nM"
>>> endpoint_result("CNc1cc(C)nc(Nc2cc3c(c(C4=C[C@H]5CNC[C@H]5C4)c2)OCO3)n1")
"500 to 2000 nM"
>>> endpoint_result("CNc1cc(C)nc(Nc2cc3c(c(C4=CCNCCC4)c2Cl)OCCO3)n1")
"< 100 nM"
>>> endpoint_result("CNc1cc(C)nc(Nc2cc3c(c(C4=CCNCC(O)C4)c2F)OCC3)n1 (centres unmarked) [Compound 179]")
"< 100 nM"
>>> endpoint_result("[2H]C([2H])([2H])CNc1cc(C)nc(Nc2cc3c(c(C4=CCN(C)CCC4)c2)OCCC3)n1")
"100 to 500 nM"
>>> endpoint_result("CNc1cc(C)nc(Nc2cc3c(c(OCCCN4CCCC4)c2)OCC(=O)N3)n1")
"> 2000 nM"
>>> endpoint_result("COCCNc1cc(C)nc(Nc2cc3c(c(C4=CCN(C)CCC4)c2)OCC3)c1")
"500 to 2000 nM"
>>> endpoint_result("CNc1cc(C)nc(Nc2cc3c(c(C4=CCN(C)CCC4)c2F)OCC3C)n1 (centres unmarked)")
"100 to 500 nM"
>>> endpoint_result("CNc1ccnc(Nc2cc3c(c(C4=CCNCCC4)c2)OCO3)n1")
"< 100 nM"
>>> endpoint_result("CNc1nc(Nc2cc3c(c(C4=CCNCCC4)c2F)OCC3)nc(C)c1OC")
"100 to 500 nM"
>>> endpoint_result("CNc1cc(C)nc(Nc2cc3c(c(N4CCCNCC4)c2)OCC3)n1")
"500 to 2000 nM"
>>> endpoint_result("CNc1ccnc(Nc2cc3c(c(C4=CCNCCC4)c2)OCC3)n1")
"< 100 nM"
>>> endpoint_result("CNc1cc(C2CC2)nc(Nc2cc3c(c(C4=CCN(C)CCC4)c2)OCC3)n1")
"500 to 2000 nM"
>>> endpoint_result("CNc1nc(Nc2cc3c(c(C4=CCN(C)CCC4)c2F)OCC3)nc(C)c1OC")
"500 to 2000 nM"
>>> endpoint_result("CNc1cc(C)nc(Nc2cc3c(c(C4=CCN(CCOC)CCC4)c2)OC(F)(F)O3)n1")
"> 2000 nM"
>>> endpoint_result("CNc1cc(C)nc(Nc2cc3c(c(N4C[C@H]5CNC[C@H]5C4)c2)OCC3)n1")
"> 2000 nM"
>>> endpoint_result("CNc1cc(C)nc(Nc2cc3c(c(C4=CCNCC(F)C4)c2F)OCC3)n1 (single isomer, unassigned) [Compound 168]")
"100 to 500 nM"
>>> endpoint_result("[2H]C([2H])([2H])Nc1nc(Nc2cc3c(c(C4=CCNCCC4)c2)OCO3)nc(C)c1F")
"500 to 2000 nM"
>>> endpoint_result("Cc1cc(NC2COC2)cc(Nc2cc3c(c(C4=CCN(C)CCC4)c2)OCC3)n1")
"500 to 2000 nM"
>>> endpoint_result("CNc1cc(C)nc(Nc2cc3c(c(C4=CCNC(C)CC4)c2C)OCCC3)n1 (single isomer, unassigned) [Compound 385-a]")
"> 2000 nM"
>>> endpoint_result("CNc1cc(C)nc(Nc2cc3c(c(N4C[C@H]5CNC[C@H]5C4)c2F)OCC3)n1")
"100 to 500 nM"
